Target: T1, SARS-CoV-2 C14S,C23S,C73S NSP9 (triSer-Nsp9) (SARS-CoV-2, UniProt P0DTC1 4141-4253)
T1 construct: also called NSP (dissolved in ammonium acetate); INS (dissolved in DMSO/PBS)
T1 chain: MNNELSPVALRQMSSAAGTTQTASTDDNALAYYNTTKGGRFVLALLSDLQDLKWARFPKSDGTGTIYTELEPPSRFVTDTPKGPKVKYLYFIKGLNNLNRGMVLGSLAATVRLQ
Assay: ELISA signal on INS over uncoated blocked blank
Please note: INS/control exactly at 20 is not met. Only values below 20 get met.

**Query** For this binder, is INS/control lower than 20? 2NSP90 (VHH) VHH: QVQLQESGGGLVQTGDSLRLSCAVSGRTFSTYSVGWFRQAPGKEREFVALRWSGGTTYYADSVVGRFTVSRDNAKNTVYLEMNSLKPEDTAVYYCAADRGSGSYSPTYRWDYWGQGTQVTVSS
**Result** not met

**Query** For this binder, is INS/control lower than 20? 2INS27 (VHH) VHH: QVQLQESGGGLVQAGGSLRLSCATSGSIFSSAVMGWYRQAPGNERELVALIGSSDTTDYSNSVKGRFTISRDNAKNTAYLRMNSLKPEDTAVYYCTAVKYGLGGFVYWGQGTQVTVSS
**Result** not met

**Query** For this binder, is INS/control lower than 20? 2INS61 (VHH) VHH: QVQLQESGGGLVQAGGSLRLSCAASGSIFSINTMGWYRQAPGKQRELVAAITSGGSTNYADSVKGRFTISRDNAKNTVHLQMNSLKPEDTAVYYCNVVEGWGPPVGYWGQGTQVTVSS
**Result** met

**Query** For this binder, is INS/control lower than 20? 3INS39 (VHH) VHH: QVQLQESGGGLVQAGGSLRVSCEVSGIMFGINTMGWYRQAPGKQRELVAHITSSGSTNYADSVKGRFTISRDNAKKTVYLQMNSLKPEDTAVYYCNVVAGWGPPPGYWGQGTQVTVSS
**Result** met

**Query** For this binder, is INS/control lower than 20? 3NSP52 (VHH) VHH: QVQLQESGGGLVQPEGSLRLSCAASGLTFDSYAIGWFRQAPGKEREFVAASIWSGDSGHYTGSVKGRFTISRDNAKNTVDLQMNSLKPEDTAVYYCAASASFLHSANYHMRAKWGYWGQGTQVTVSS
**Result** not met

**Query** For this binder, is INS/control lower than 20? 2NSP23 (VHH) VHH: QVQLQESGGGLVQPGGSLRLSCAASGLAFSMYTMGWFRQAPGKEREFVAMIISSGDSTDYADSVKGRFTISRDNGKNTVYLQMDSLKPEDTAVYYCAAPKFRYYFSTSPGDFDSWGQGTQVTVSS
**Result** met
